assay: Solubility in aqueous buffers of different pH; format: physicochemical; conditions: aqueous buffer; NaOH pH: 11.44
Measure Name: solubility

Lookup: Data request, read-out solubility, for CCOC(=O)C1=C(COCCN)NC(C)=C(C(=O)OC)C1c1ccccc1Cl (racemic)
Found: < 50 µg/mL

---

test: Solubility in aqueous buffers of different pH; assay type: physicochemical; details: aqueous buffer, pH 1.2, simulated gastric fluid; SGN pH: 1.20
Measure Name: solubility

Lookup: Could you tell me which solubility is on file for CCOC(=O)C1=C(COCCN)NC(C)=C(C(=O)OC)C1c1ccccc1Cl (racemic) ?
Found: > 5000 µg/mL
